Test system: Spontaneously hypertensive rats (SHR)
Assay: Blood pressure reduction in vivo assay (radiotelemetry)
Conditions: SHR rat, single dose 10 mg/kg p.o.
readout.type: Maximal fall in Mean Blood Pressure after single dose of 10 mg/kg p.o. (mmHg)
Numbers only, in mmHg.

Answered examples (2):
> print(dat)
                                   compound                           assay.system  experimental.result
1  CCc1nc2c(C)cc(CCO)nc2n1[C@H]1CCc2cc(-c3ccccc3-c3nnn[nH]3)ccc21 [Example 13a]  Spontaneously hypertensive rats (SHR)                  −28
2  CCc1nc2c(C)cc([C@@H](O)C(C)C)nc2n1[C@H]1CCc2cc(-c3ccccc3-c3nnn[nH]3)ccc21  Spontaneously hypertensive rats (SHR)                  −27

Go through the items and report each one's Maximal fall in Mean Blood Pressure after single dose of 10 mg/kg p.o. (mmHg).
1. CCc1nc2c(C)cc(CCOC)nc2n1[C@H]1CCc2cc(-c3ccccc3-c3nnn[nH]3)ccc21
2. CCc1nc2c(C)cc(CC(C)(C)O)nc2n1[C@H]1CCc2cc(-c3ccccc3-c3nnn[nH]3)ccc21

Out:
["−46", "−37"]
